- experimental.system: GST-tagged PPARγ ligand-binding domain (PPARγ LBD) (Homo sapiens)
- Sequence (P37231 238-503 limits assumed): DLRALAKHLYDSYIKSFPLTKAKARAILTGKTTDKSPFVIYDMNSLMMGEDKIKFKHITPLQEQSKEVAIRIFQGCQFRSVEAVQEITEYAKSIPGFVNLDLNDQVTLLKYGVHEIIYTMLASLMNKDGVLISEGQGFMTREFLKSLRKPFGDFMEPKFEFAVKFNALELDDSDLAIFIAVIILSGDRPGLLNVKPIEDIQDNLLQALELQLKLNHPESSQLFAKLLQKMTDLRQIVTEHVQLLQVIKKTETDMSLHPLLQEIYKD
- procedure.summary: In vitro competition binding assay
measurement.type: pIC50
pIC50 here: minus log base 10 of the concentration, concentration in moles per litre.

Please look up its pIC50: `Cc1cc(C(=O)NCc2cccc(O)c2)ccc1NCc1ccc(-c2ccccc2C(=O)O)cc1`
6.49

* * *

- experimental.system: GST-tagged PPARγ ligand-binding domain (PPARγ LBD) (Homo sapiens)
measurement.type: Ki (nM)
Give the quantity in nM, number only.

Request: Ki, test system GST-tagged PPARγ ligand-binding domain (PPARγ LBD) (Homo sapiens), entry `Cc1cc(C(=O)NCc2cccc(O)c2)ccc1NCc1ccc(-c2ccccc2C(=O)O)cc1`
254
